Data credit: patent US6825202B2

// values below are reported melting point

>>> result("COc1ccc(S(=O)(=O)c2cc(Cl)cc(Cl)c2)cc1N1CCNCC1")
"245.9 to 246.2 °C"
>>> result("COc1ccc(S(=O)(=O)c2ccc(Cl)cc2)cc1N1CCNCC1")
"263.4 to 272.1 °C"

Entry COc1ccc(S(=O)(=O)c2cccc(Cl)c2)cc1N1CCNCC1 : reported melting point = ?
265 to 266.3 °C

---

Counter-ions that a name gives are not always drawn.
RESULT TYPE: melting point

Field: example entries. Status: answers known.
>>> result("COc1ccc(S(=O)(=O)c2ccc3ccccc3c2)cc1N1CCNCC1")
"279.9 to 283.3 °C"
>>> result("COc1ccc(S(=O)(=O)c2ccc(Cl)cc2)cc1C1CCNCC1 (as salt: hydrochloride) [compound 301]")
"235.5 to 236 °C"
>>> result("COc1ccc(S(=O)(=O)c2ccc(F)c3ccccc23)cc1N1CCNCC1 (as salt: hydrochloride) [compound 401]")
"155 to 159 °C"

# context switch: different compound, same melting point
I'd like to know its melting point. The compound in question is COc1ccc(S(=O)(=O)c2cccc(F)c2)cc1N1CCNCC1
246 to 250.1 °C
